These data points were gathered from patent US20240368120A1.

target: human GLP-1R receptor (Homo sapiens)
Sequence (P43220 24-463): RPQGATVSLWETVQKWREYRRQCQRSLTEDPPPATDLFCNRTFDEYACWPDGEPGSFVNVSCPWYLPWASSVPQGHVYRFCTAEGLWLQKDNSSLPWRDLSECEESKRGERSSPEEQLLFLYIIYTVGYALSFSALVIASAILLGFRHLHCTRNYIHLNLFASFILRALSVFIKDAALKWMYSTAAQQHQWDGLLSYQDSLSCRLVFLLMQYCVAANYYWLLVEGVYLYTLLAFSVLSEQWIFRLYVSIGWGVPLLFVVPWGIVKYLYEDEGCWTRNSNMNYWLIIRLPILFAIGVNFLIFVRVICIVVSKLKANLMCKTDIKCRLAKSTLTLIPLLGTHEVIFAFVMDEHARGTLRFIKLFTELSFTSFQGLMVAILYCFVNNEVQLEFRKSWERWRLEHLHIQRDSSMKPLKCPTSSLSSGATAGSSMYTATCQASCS
protocolDetails: GLP-1R low expression cell assay (cAMP TR-FRET, CHO-K1_hGLP-1Rlow_clone10 cells)
conditionSet: cAMP TR-FRET, 30 min at 25° C.
Collected EC50 values appear next to each entry.

I'm curious: which EC50 was measured for CO[C@H]1C[C@H](Oc2cc(C(=O)O)cc3c2nc(CN2CCC(c4cccc(OCc5ccc(Cl)cc5F)n4)CC2)n3C)C1 tested on human GLP-1R receptor (Homo sapiens)?
100 to 1000 nM

// map Cn1c(CN2CCC(c3cccc(OCc4cnc(C#N)cc4F)n3)CC2)nc2c(OC(F)F)cc(C(=O)O)cc21 to recorded EC50 (system: human GLP-1R receptor (Homo sapiens))
100 to 1000 nM

Query EC50 on human GLP-1R receptor (Homo sapiens) for COc1cc(Cl)ccc1COc1cccc(C2CCN(Cc3nc4c(OC(F)F)cc(C(=O)O)cc4n3C)CC2)n1
< 10 nM

# value lookup — system human GLP-1R receptor (Homo sapiens), readout EC50, item Cn1c(CN2CCC(c3cccc(OCc4ccc(Cl)cc4F)n3)CC2)nc2c(O[C@H]3C[C@@H](F)C3)cc(C(=O)O)cc21
10 to 100 nM

Find the measured EC50: item COc1cc(C(=O)O)cc2c1nc(CN1CCC(c3cccc4c3O[C@@](C)(c3ccc(Cl)cn3)O4)CC1)n2Cc1cncs1 , target or system human GLP-1R receptor (Homo sapiens).
< 10 nM

So what EC50 did Cn1c(CN2CCC(c3cccc(OCc4ccc(Cl)cc4F)n3)CC2)nc2c(C#N)cc(C(=O)O)cc21 get with human GLP-1R receptor (Homo sapiens)?
10 to 100 nM

Form entry - test system: human GLP-1R receptor (Homo sapiens); read-out: EC50; compound: Cn1c(CN2CCC(c3nc(OCc4ccc(Cl)cc4F)ccc3F)CC2)nc2c(OC(F)F)cc(C(=O)O)cc21
100 to 1000 nM

What reported EC50 corresponds to CN1C(=O)[C@H](c2ccc(Cl)cc2F)Oc2c(C3CCN(Cc4nc5c(OC(F)F)cc(C(=O)O)cc5n4C)CC3)cccc21 on human GLP-1R receptor (Homo sapiens)?
> 1000 nM

More entries:
Find EC50 (human GLP-1R receptor (Homo sapiens)) for the entry [2H]C([2H])(C)Oc1cc(C(=O)O)cc2c1nc(CN1CCC(c3cccc(OCc4ccc(Cl)cc4F)n3)CC1)n2C
< 10 nM

Form field - read-out: EC50; system: human GLP-1R receptor (Homo sapiens); submitted item: COCCOc1cc(C(=O)O)cc2nc(CN3CCC(c4cccc5c4O[C@@](C)(c4ccc(Cl)cn4)O5)CC3)n(C)c12
> 1000 nM

API: value(readout= EC50, system= human GLP-1R receptor (Homo sapiens), query= N#Cc1ccc(COc2cccc(C3CCN(Cc4nc5c(OC(F)F)cc(C(=O)O)cc5n4C[C@@H]4CCS4(=O)=O)CC3)n2)c(F)c1 )
< 10 nM

Observed EC50 on human GLP-1R receptor (Homo sapiens) for COc1c(OCc2ccc(Cl)cc2F)cccc1C1CCN(Cc2nc3c(OC(F)F)cc(C(=O)O)cc3n2C)CC1 , please.
> 1000 nM

Item Cn1c(CN2CCC(c3cccc(OCc4ccc(C5COC5)cc4F)n3)CC2)nc2c(OC(F)F)cc(C(=O)O)cc21 with human GLP-1R receptor (Homo sapiens) - EC50?
10 to 100 nM

Can you look up EC50 on human GLP-1R receptor (Homo sapiens) for Cn1c(CN2CCC(c3cccc(F)c3OCc3ccc(Cl)cc3F)CC2)nc2c(OC(F)F)cc(C(=O)O)cc21 ?
10 to 100 nM
